Target: 5-HT1A receptor (Rattus norvegicus, UniProt P19327)
Construct: the cerebral cortex is sampled and homogenized in 20 volumes of buffer; from tissue; host or cells: rat cerebral cortex homogenate (membranes)
Sequence (P19327 whole entry): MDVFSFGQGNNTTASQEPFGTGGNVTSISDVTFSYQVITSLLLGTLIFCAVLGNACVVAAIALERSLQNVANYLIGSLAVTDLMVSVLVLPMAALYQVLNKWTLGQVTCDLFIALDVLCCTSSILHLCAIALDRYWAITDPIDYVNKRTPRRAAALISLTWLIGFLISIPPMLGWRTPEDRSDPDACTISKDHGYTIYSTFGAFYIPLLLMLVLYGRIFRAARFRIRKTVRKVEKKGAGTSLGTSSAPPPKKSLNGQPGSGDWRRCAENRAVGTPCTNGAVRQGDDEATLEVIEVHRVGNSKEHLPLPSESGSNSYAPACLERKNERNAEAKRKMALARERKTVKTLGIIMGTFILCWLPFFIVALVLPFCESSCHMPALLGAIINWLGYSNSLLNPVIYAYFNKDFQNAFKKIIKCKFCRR
Assay: Affinity for 5-HT1A receptors, shift of (3H)8-OH-DPAT in rat cerebral cortex
Assay type: binding
Conditions: mean of at least 3 experiments, read-out: 5-HT1A affinity (pKi) (converted)
EXPERIMENTAL_READOUT: Ki (nM)

1. O=C(c1ccc(F)c(Cl)c1)N1CCC(F)(CNCC2CNc3cccc(F)c3O2)CC1 (centres unmarked)	0.631

(P) O=C(c1ccc(F)c(Cl)c1)N1CCC(F)(CNCC2CNc3ccccc3O2)CC1 (single isomer, unassigned; (-))
(Q) O=C(c1ccc(F)c(Cl)c1)N1CCC(F)(CNCC2CNc3cccc(Cl)c3O2)CC1 (centres unmarked)
(R) N#Cc1cccc2c1OC(CNCC1(F)CCN(C(=O)c3ccc(F)c(Cl)c3)CC1)CN2 (centres unmarked)
(S) COc1cccc2c1OC(CNCC1(F)CCN(C(=O)c3ccc(F)c(Cl)c3)CC1)CN2 (centres unmarked)
Number of compounds to sort: 4. Sort criterion: Ki, ascending. Your answer should be the labels, listed in the requested order.
R, P, S, Q
(R: 0.646 nM, P: 1.02 nM, S: 1.51 nM, Q: 2.29 nM)

(A) NC(=O)c1cccc2c1OC(CNCC1(F)CCN(C(=O)c3ccc(F)c(Cl)c3)CC1)CN2 (centres unmarked)
(B) Cc1cccc2c1OC(CNCC1(F)CCN(C(=O)c3ccc(F)c(Cl)c3)CC1)CN2 (centres unmarked)
Kindly identify the item with the lower Ki figure among these two: A and B Reply with the label of the item you choose.
A

Origin of values: patent US8669250B2
